- recorded conditions: in water, 278.15 K
measured property: solubility (mole fraction)

Query block: Reported solubility (mole fraction), compound Nc1ccc(Br)nn1 : ____
Result block: 2.57e-05

----------
- recorded conditions: in DMF, 308.15 K
measured property: solubility (mole fraction)
No unit in the answer, only the number.

Query block: # input compound: Nc1ccc(Br)nn1 ; wanted: its solubility (mole fraction)
Result block: 0.0192

----------
- recorded conditions: in acetone, 283.15 K
measured property: solubility (mole fraction)
Would you mind answering with just the numeric figure?

Query block: Can you look up the measured solubility (mole fraction) of Nc1ccc(Br)nn1 for me?
Result block: 0.00832

----------
- recorded conditions: in isopropanol, 303.15 K
measured property: solubility (mole fraction)
// return just the number, without any unit appended

Query block: Find the recorded solubility (mole fraction) belonging to Nc1ccc(Br)nn1 and report it.
Result block: 0.00475

----------
- recorded conditions: in DMF, 293.15 K
measured property: solubility (mole fraction)
The reply should be a number, written without any unit.

Query block: Request the reported solubility (mole fraction) associated with Nc1ccc(Br)nn1
Result block: 0.0155

----------
- recorded conditions: in DMF, 283.15 K
measured property: solubility (mole fraction)
// print number alone

Query block: Name the reported solubility (mole fraction) value associated with the compound Nc1ccc(Br)nn1
Result block: 0.0134

----------
- recorded conditions: in ethanol, 303.15 K
measured property: solubility (mole fraction)

Query block: So what does the record say about solubility (mole fraction) for Nc1ccc(Br)nn1 ?
Result block: 0.00314

----------
- recorded conditions: in DMF, 318.15 K
measured property: solubility (mole fraction)

Query block: Entry Nc1ccc(Br)nn1 has what solubility (mole fraction)?
Result block: 0.0223

----------
- recorded conditions: in methanol, 323.15 K
measured property: solubility (mole fraction)
Field format: numeric only.

Query block: Look at this compound and give its reported solubility (mole fraction). Nc1ccc(Br)nn1
Result block: 0.00209

----------
- recorded conditions: in DMF, 303.15 K
measured property: solubility (mole fraction)
Give a plain numeric answer without units written out.

Query block: Bench note: what solubility (mole fraction) did Nc1ccc(Br)nn1 show?
Result block: 0.0179

----------
- recorded conditions: in water, 293.15 K
measured property: solubility (mole fraction)
Returns: the value as a bare number; no unit string appended.

Query block: May I ask what solubility (mole fraction) has been recorded for Nc1ccc(Br)nn1 ?
Result block: 3.18e-05

----------
- recorded conditions: in ethanol, 288.15 K
measured property: solubility (mole fraction)
Output spec: single numeric token, no unit.

Query block: Quick check: solubility (mole fraction) of Nc1ccc(Br)nn1 ?
Result block: 0.00251

----------
- recorded conditions: in toluene, 298.15 K
measured property: solubility (mole fraction)
Number, no unit, nothing else.

Query block: What measured solubility (mole fraction) goes with Nc1ccc(Br)nn1 ?
Result block: 0.0141

----------
- recorded conditions: in water, 298.15 K
measured property: solubility (mole fraction)

Query block: Entry Nc1ccc(Br)nn1 has what solubility (mole fraction)?
Result block: 3.43e-05

----------
- recorded conditions: in DMF, 323.15 K
measured property: solubility (mole fraction)
Please reply with the value in numeric form only.

Query block: I'd like to know its solubility (mole fraction). The compound in question is Nc1ccc(Br)nn1
Result block: 0.0242

----------
- recorded conditions: in acetone, 278.15 K
measured property: solubility (mole fraction)
Give your answer as a number; write no unit.

Query block: What solubility (mole fraction) value was documented for this molecule, Nc1ccc(Br)nn1 ?
Result block: 0.00754
